# Measured Target: IL-17A/A (Homo sapiens, UniProt Q16552)
# Assay Explanation: IL-17A/A HEK-Blue Cell Assay
# Condition Summary: IL-17A/A inhibition, HEK-Blue IL-17A reporter cell line, SEAP readout at A630, incubated for 20 hours
Each record here notes measured IC50.

Study these solved cases before continuing.
Molecule: CCn1nccc1C(=O)N[C@H](c1nc2cc(CC3CCC(C(F)(F)F)NC3=O)cc(F)c2[nH]1)C(C1CC1)C1CC1 (some centres unmarked) [Compound 53]
IC50: 0.1 to 1 µM
--
Molecule: CCn1nccc1C(=O)N[C@H](c1nc2ccc(C[C@@H]3CCCNC3=O)cc2[nH]1)C(C1CC1)C1CC1 [Compound 18]
IC50: > 1 µM
--
Molecule: CCn1nccc1C(=O)N[C@H](c1nc2cc(C(C)C3CCNC3=O)ccc2[nH]1)C(C1CC1)C1CC1 (some centres unmarked) [Compound 22]
IC50: > 1 µM
--
Molecule: CCn1nccc1C(=O)N[C@H](c1nc2cc(C[C@@H]3CCNC3=O)ccc2[nH]1)C(C1CC1)C1CC1 [Compound 27]
IC50: > 1 µM
--
Molecule: CCn1nccc1C(=O)N[C@H](c1nc2cc(CC3CCC(C(F)(F)F)NC3=O)cc(F)c2[nH]1)C(C1CC1)C1CC1 (some centres unmarked) [Compound 56]
IC50: 0.1 to 1 µM

Param item = CCn1nccc1C(=O)N[C@H](c1nc2cc(C)c(CC3CCNC3=O)cc2[nH]1)C(C1CC1)C1CC1 (some centres unmarked) [Compound 26] ; retrieve measured IC50.
> 1 µM

Param item = CCn1nccc1C(=O)N[C@H](c1nc2c(F)c(C[C@@H]3CCNC3=O)ccc2[nH]1)C1CCC(F)(F)CC1 [Compound 12] ; retrieve measured IC50.
> 1 µM

Param item = CCn1nccc1C(=O)N[C@H](c1nc2cc(C(C)C3CCNC3=O)ccc2[nH]1)C(C1CC1)C1CC1 (some centres unmarked) [Compound 21] ; retrieve measured IC50.
0.1 to 1 µM

Param item = CCn1nccc1C(=O)N[C@H](c1nc2c(F)c(C[C@@H]3C[C@@H](C(F)(F)F)NC3=O)ccc2[nH]1)C(C1CC1)C1CC1 [Compound 37] ; retrieve measured IC50.
0.1 to 1 µM

Param item = CCn1nccc1C(=O)N[C@H](c1nc2cc(CC3CCC(C(F)(F)F)NC3=O)ccc2[nH]1)C(C1CC1)C1CC1 (some centres unmarked) [Compound 43] ; retrieve measured IC50.
0.1 to 1 µM

Param item = CCn1nccc1C(=O)N[C@H](c1nc2cc(C[C@H]3CCNC3=O)ccc2[nH]1)C(C1CC1)C1CC1 [Compound 16] ; retrieve measured IC50.
0.1 to 1 µM

Param item = CCn1nccc1C(=O)N[C@H](c1nc2c(F)c(C[C@H]3CCNC3=O)ccc2[nH]1)C(C1CC1)C1CC1 (single isomer, unassigned) [Compound 1] ; retrieve measured IC50.
0.1 to 1 µM

Param item = Cc1nonc1C(=O)N[C@H](c1nc2ccc(C[C@H]3CCNC3=O)cc2[nH]1)C1CCC(F)(F)CC1 [Compound 67] ; retrieve measured IC50.
0.1 to 1 µM

Param item = CCn1nccc1C(=O)N[C@H](c1nc2ccc(C(C)C3CCCNC3=O)cc2[nH]1)C(C1CC1)C1CC1 (some centres unmarked) [Compound 85] ; retrieve measured IC50.
> 1 µM

====

# Measured Target: IL-17A/A (Homo sapiens, UniProt Q16552)
# Assay Explanation: IL-17A/A HEK-Blue Cell Assay
# Condition Summary: IL-17A/A inhibition, HEK-Blue IL-17A reporter cell line, SEAP readout at A630, incubated for 20 hours
Assay Endpoint: IC50

Study these solved cases before continuing.
Molecule: CCn1nccc1C(=O)N[C@H](c1nc2ccc(C(COC)C3C[C@@H](C(F)(F)F)NC3=O)cc2[nH]1)C(C1CC1)C1CC1 (stereo partly shown) [Compound 79]
Result Value: 100 to 1000 nM
--
Molecule: CCn1nccc1C(=O)N[C@H](c1nc2ccc(C[C@H]3CC(F)(F)CNC3=O)cc2[nH]1)C(C1CC1)C1CC1
Result Value: < 100 nM
--
Molecule: CCn1nccc1C(=O)N[C@H](c1nc2cc(CC3CCNC3=O)cc(C#N)c2[nH]1)C1CCC(F)(F)CC1 (stereo partly shown)
Result Value: 100 to 1000 nM

Param item = CCn1nccc1C(=O)N[C@H](c1nc2ccc(CC3CC(C(F)(F)F)CNC3=O)cc2[nH]1)C(C1CC1)C1CC1 (stereo partly shown) ; retrieve measured IC50.
100 to 1000 nM

====

# Measured Target: IL-17A/A (Homo sapiens)
# Assay Explanation: IL-17A/A HEK-Blue Cell Assay
# Condition Summary: IL-17A/A inhibition, HEK-Blue IL-17A reporter cell line, SEAP readout at A630, incubated for 20 hours
Assay Endpoint: IC50

Study these solved cases before continuing.
Molecule: Cn1nccc1C(=O)N[C@H](c1nc2ccc(C[C@H]3CCNC3=O)cc2[nH]1)C(C1CC1)C1CC1
IC50: 100 to 1000 nM
--
Molecule: CCn1nccc1C(=O)N[C@H](c1nc2ccc(CC3(C)CCNC3=O)cc2[nH]1)C(C1CC1)C1CC1 (stereo partly shown) [Compound 19]
IC50: > 1000 nM
--
Molecule: O=C1N[C@H](C(F)(F)F)C[C@H]1Cc1ccc2nc([C@@H](NC(=O)C3(F)CC3)C(C3CC3)C3CC3)[nH]c2c1
IC50: > 1000 nM

Consider the record given below.
Param item = CC(C)n1nccc1C(=O)N[C@H](c1nc2ccc(C[C@H]3CCNC3=O)cc2[nH]1)C(C1CC1)C1CC1 ; retrieve measured IC50.
100 to 1000 nM

====

Each record here notes measured IC50.
# Measured Target: IL-17A/A (Homo sapiens, UniProt Q16552)
# Sequence (Q16552 24-155): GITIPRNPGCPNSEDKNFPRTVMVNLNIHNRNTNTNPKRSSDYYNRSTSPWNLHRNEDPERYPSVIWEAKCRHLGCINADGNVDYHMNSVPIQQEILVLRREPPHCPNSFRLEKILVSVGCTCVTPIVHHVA
# Assay Explanation: IL-17A/A HEK-Blue Cell Assay
# Condition Summary: IL-17A/A inhibition, HEK-Blue IL-17A reporter cell line, SEAP readout at A630, incubated for 20 hours

Molecule: CCn1nccc1C(=O)NC(c1nc2nc(CC3CCNC3=O)ccc2[nH]1)C1CCC(F)(F)CC1 (mixture of isomers)
Result Value: > 1000 nM
--
Molecule: CC[C@@H](C1CCC1)[C@H](NC(=O)c1ccnn1CC)c1nc2ccc(C[C@H]3CCNC3=O)cc2[nH]1
Result Value: 100 to 1000 nM
--
Molecule: CCn1nccc1C(=O)N[C@H](c1nc2c(F)c(CC3CCC(C(F)(F)F)NC3=O)ccc2[nH]1)C(C1CC1)C1CC1 (single isomer, unassigned) [Compound 49]
Result Value: > 1000 nM

Param item = CCn1nccc1C(=O)N[C@H](c1nc2cc(CC3CC(C(F)(F)F)NC3=O)cc(F)c2[nH]1)C(C1CC1)C1CC1 (stereo partly drawn) [Compound 41] ; retrieve measured IC50.
100 to 1000 nM

Param item = CCn1nccc1C(=O)N[C@H](c1nc2ccc(C[C@H]3CCNC3=O)cc2[nH]1)[C@H](c1ccccc1Cl)C(C)C ; retrieve measured IC50.
> 1000 nM

Param item = CCn1nccc1C(=O)N[C@H](c1nc2ccc(CC3CC(C)NC3=O)cc2[nH]1)C(C1CC1)C1CC1 (stereo partly drawn) ; retrieve measured IC50.
100 to 1000 nM

====

# Measured Target: IL-17A/A (Homo sapiens, UniProt Q16552)
# Assay Explanation: IL-17A/A HEK-Blue Cell Assay
# Condition Summary: IL-17A/A inhibition, HEK-Blue IL-17A reporter cell line, SEAP readout at A630, incubated for 20 hours
pIC50: −log10 of the molar value.
Assay Endpoint: pIC50

Study these solved cases before continuing.
Compound: CCn1nccc1C(=O)N[C@H](c1nc2ccc(C(COC)C3C[C@@H](C(F)(F)F)NC3=O)cc2[nH]1)C(C1CC1)C1CC1 (stereo partly drawn) [Compound 80]
Measured Target: IL-17A/A (Homo sapiens, UniProt Q16552)
Assay Endpoint: pIC50
Result Value: 6.00 to 7.00
--
Compound: CCn1nccc1C(=O)N[C@H](c1nc2ccc(C[C@H]3CCNC3=O)cc2[nH]1)[C@@H](C)[C@H]1CC[C@H](C)CC1
Measured Target: IL-17A/A (Homo sapiens, UniProt Q16552)
Assay Endpoint: pIC50
Result Value: 6.00 to 7.00
--
Compound: CCn1nccc1C(=O)N[C@H](c1nc2c(F)c(CC3CCNC3=O)ccc2[nH]1)C(C1CC1)C1CC1 (mixture of isomers)
Measured Target: IL-17A/A (Homo sapiens, UniProt Q16552)
Assay Endpoint: pIC50
Result Value: 6.00 to 7.00
--
Compound: CCn1nccc1C(=O)N[C@H](c1nc2cc(C[C@H]3C[C@@H](C(F)(F)F)NC3=O)ccc2[nH]1)C(C1CC1)C1CC1 (single isomer, unassigned)
Measured Target: IL-17A/A (Homo sapiens, UniProt Q16552)
Assay Endpoint: pIC50
Result Value: > 7.00
--
Compound: CCn1nccc1C(=O)N[C@H](c1nc2nc(CC3CCNC3=O)ccc2[nH]1)C1CCC(F)(F)CC1 (stereo partly drawn)
Measured Target: IL-17A/A (Homo sapiens, UniProt Q16552)
Assay Endpoint: pIC50
Result Value: < 6.00

Consider the record given below.
Request body: readout pIC50, system IL-17A/A (Homo sapiens, UniProt Q16552), query CCn1nccc1C(=O)N[C@H](c1nc2ccc(CC3C(=O)NCC3C(F)(F)F)cc2[nH]1)C(C1CC1)C1CC1 (stereo partly drawn) . Return the value.
6.00 to 7.00
